The following are reported IC50 results, target or system UniProt:O60285.
Sequence (O60285 whole entry): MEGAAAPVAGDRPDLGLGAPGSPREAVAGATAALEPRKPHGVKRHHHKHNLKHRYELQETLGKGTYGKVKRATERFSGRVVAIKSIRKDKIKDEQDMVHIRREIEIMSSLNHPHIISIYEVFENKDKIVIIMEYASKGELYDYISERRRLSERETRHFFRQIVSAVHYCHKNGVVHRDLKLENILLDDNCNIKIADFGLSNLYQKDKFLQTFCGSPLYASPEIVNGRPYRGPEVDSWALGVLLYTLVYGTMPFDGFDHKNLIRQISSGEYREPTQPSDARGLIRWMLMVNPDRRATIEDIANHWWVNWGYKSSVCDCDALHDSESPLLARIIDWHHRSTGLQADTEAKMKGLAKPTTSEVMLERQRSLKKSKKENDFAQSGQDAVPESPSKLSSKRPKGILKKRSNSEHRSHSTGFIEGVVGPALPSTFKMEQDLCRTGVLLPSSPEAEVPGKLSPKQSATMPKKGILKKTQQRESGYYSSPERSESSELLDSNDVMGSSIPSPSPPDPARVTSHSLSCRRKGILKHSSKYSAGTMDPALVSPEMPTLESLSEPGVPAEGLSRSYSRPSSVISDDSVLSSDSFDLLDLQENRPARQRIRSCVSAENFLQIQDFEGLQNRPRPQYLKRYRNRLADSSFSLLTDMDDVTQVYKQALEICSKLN

The compound identified as O=C1NCc2cccc(Nc3nc(Nc4ccc(N5CCOCC5)cc4OC(F)F)ncc3C(F)(F)F)c21 [Compound I-60] registered its IC50 at 11 to 100 nM

Briefly, IC50 measured for CCN(CC)CCOc1ccc(Nc2ncc(C(F)(F)F)c(Nc3cccc4c3C(=O)NC4)n2)cc1 [Compound I-61] : 11 to 100 nM

So, COc1cc2c(cc1Nc1ncc(Cl)c(Nc3cccc4c3C(=O)NC4)n1)CCNCC2 [Compound I-26] ? Its IC50 was 11 to 100 nM

Field IC50 (entry COc1nc(N2CCN(C)CC2)ccc1Nc1ncc(Cl)c(Nc2cccc3c2C(=O)NC3)n1 [Compound I-14] ) reads 0.1 to 10 nM

COc1c(Nc2ncc(C(F)(F)F)c(Nc3cccc4c3C(=O)NC4)n2)ccc(N2C[C@H]3CN(C)C[C@H]3C2)c1F [Compound I-35] yielded IC50 of 11 to 100 nM

// field: IC50; key: CN1CCN(C2CCN(c3ccc(Nc4ncc(C(F)(F)F)c(Nc5cccc6c5C(=O)NC6)n4)c(OC(F)F)c3)CC2)CC1 [Compound I-20] ; value = 11 to 100 nM

All figures here come from patent US12643886B2.
